- Test system: antibodies in sera from SARS patients (sera 1a, 1b, 2, 6, 37, 62, London, SARS-yellow, SARS-green)
- Format: binding, human
sequences and their reported Binding of serum SARS-green to linear peptides of protein N of SARS-CoV Urbani
QUANTITY KIND: Binding of serum SARS-green to linear peptides of protein N of SARS-CoV Urbani

RESIDUE CODES | NUMERIC RESULT
ARPKQRRPQGLPNNT | 0.5
TGPEASLPYGANKEG | 0.8
DAYKTFPPTEPKKDK | 0.4
EASLPYGANKEGIVW | 0.2
PKKDKKKKTDEAQPL | 0.1
LPAADMDDFSRQLQN | 0.2
GYYRRATRRVRGGDG | 0.2
PRGQGVPINTNSGPD | 0.2
TALTQHGKEELRFPR | 0.4
QPTVTLLPAADMDDF | 1.9
FPRGQGVPINTNSGP | 0.3
MDDFSRQLQNSMSGA | 0.6
TRNPNNNAATVLQLP | 0.3
DYKHWPQIAQFAPSA | 0.4
LQNSMSGASADSTQA | 0.4
LRFPRGQGVPINTNS | 0.4
KELSPRWYFYYLGTG | 0.1
QRRPQGLPNNTASWF | 0.2
NTASWFTALTQHGKE | 0.4
FGGPTDSTDNNQNGG | 0.0
QGTDYKHWPQIAQFA | 0.2
AQFAPSASAFFGMSR | 0.1
SRQLQNSMSGASADS | 0.5
QFAPSASAFFGMSRI | 0.1
DNGPQSNQRSAPRIT | 0.4
KKKKTDEAQPLPQRQ | 0.6
RRVRGGDGKMKELSP | 0.4
DDQIGYYRRATRRVR | 0.6
PLPQRQKKQPTVTLL | 0.2
TVTLLPAADMDDFSR | 0.3
LPNNTASWFTALTQH | 0.3
QLQNSMSGASADSTQ | 0.3
PINTNSGPDDQIGYY | 0.3
NSGPDDQIGYYRRAT | 0.1
PTVTLLPAADMDDFS | 1.9
DGKMKELSPRWYFYY | 0.4
GTWLTYHGAIKLDDK | 0.4
DHIGTRNPNNNAATV | 0.5
TQHGKEELRFPRGQG | 0.4
RGGDGKMKELSPRWY | 0.3
NQRSAPRITFGGPTD | 0.3
QIGYYRRATRRVRGG | 0.2
KDNVILLNKHIDAYK | 0.4
AYKTFPPTEPKKDKK | 0.3
